# Tested on: MS2 coat protein
# method_description: apparent KD of MS2 coat protein; designed switch direction (-1 OFF switch, 1 ON switch): 1; higher = weaker reporter binding
# applied_conditions: input ligand: FMN 200 uM
quantity_kind: apparent KD of MS2 coat protein (nM)
Kindly answer with a numeric value in nM, unit omitted.

seq	quantity_kind	units	test_value
GUGGAGGGUUGAGGAUAUUGAUUACAUAUGUUUAACAUGAGGAUCACCCAUGUGGGUUGCGGUUUCGAGAAGGUAGGUUGCUGG [salish99_SSNG2_r04_041] (Eterna round: R96, puzzle: Same State NG 2)	apparent KD of MS2 coat protein	nM	196
GGUAGGUUACUACCAACACAUGAGGAUCACCCAUGUUUUGGGAAGGAUAUGGUACCUAUUUGGUACCAGAAGGUCCAGUUAAUG [salish99_SSNG3_r04_701] (Eterna round: R96, puzzle: Same State NG 3)	apparent KD of MS2 coat protein	nM	87
ACAUGAGACAGAGGAUAUGUUGUACCUACAUGUGACAUGAGGAUCACCCAUGUGGUAAGUAUGAUACAGAAGGCUGAGAUAUGU [Equivalance 64 - Jieux - Same State NG 2] (Eterna round: R96, puzzle: Same State NG 2)	apparent KD of MS2 coat protein	nM	15
UUGCGCUGUCGAGAGGAUAUGCGGUGUUGGACAUGAGGAUCACCCAUGUUAGCGAUUGCUUUACGGUAGAAGGCUCUUCAGCUGC [salish99_ss2_r3_098] (Eterna round: R96, puzzle: Same State 2)	apparent KD of MS2 coat protein	nM	74

Consider the additional sequence presented here.
The sequence listed as GCCGCGUUUCGCGCCUACAUGAGGAUCACCCAUGUAUGUGGGCAGGAUAUCGUUUGCUUUGCAAACGAGAAGGGCUGUUGUGGC [salish99_SSNG3_R04_010] (Eterna round: R96, puzzle: Same State NG 3) shows apparent KD of MS2 coat protein equal to 19.7
